Source of measurements: patent US10040791B2

# Test system: HT-1080 cells expressing IDH1R132C
# protocol-description: 2-HG production inhibitory activity using HT1080 cell
# Assay type: cell-based, human
# condition-description: Homo sapiens, HT-1080; 2-HG production, HT1080 cells; read-out: Test Example 3 IC50
measurement-name: IC50 (nM)

Example entries begin here.
> print(dat)
                                   compound                     target.of.assay  measurement.name  result.number
1  COC1(c2onc(-c3c(F)cc(Cl)cc3Cl)c2C(=O)n2cc(C)c3c(/C=C/C(=O)O)cccc32)CCC1  HT-1080 cells expressing IDH1R132C              IC50             32
2  C=CC(=O)N1C[C@@H](C)N(c2onc(-c3c(Cl)cccc3Cl)c2C(=O)n2ccc3c(/C=C/C(=O)O)cccc32)C2(CC2)C1  HT-1080 cells expressing IDH1R132C              IC50            138
3  Cc1cn(C(=O)c2c(-c3c(F)cc(Cl)cc3F)noc2C(C)(C)F)c2cccc(/C=C/C(=O)O)c12  HT-1080 cells expressing IDH1R132C              IC50             90
4  COC1(c2onc(-c3c(Cl)cc(Cl)cc3Cl)c2C(=O)n2cc(C)c3c(/C=C/C(=O)O)cccc32)CC1  HT-1080 cells expressing IDH1R132C              IC50             26

a: Cc1cn(C(=O)c2c(-c3c(Cl)cc(Cl)cc3Cl)noc2C2(C)COC2)c2cccc(/C=C/C(=O)O)c12
b: C=CC(=O)N1CCN(c2onc(-c3c(Cl)cc(Cl)cc3Cl)c2C(=O)n2ccc3c(/C=C/C(=O)O)cccc32)C2(CC2)C1
Compare a and b by numeric IC50 and name the larger one. # reply format: chosen label
b

* * *

# Tested on: HT-1080 cells expressing IDH1R132C
# protocol-description: 2-HG production inhibitory activity using HT1080 cell
# Type: cell-based, human
# condition-description: Homo sapiens, HT-1080; 2-HG production, HT1080 cells; read-out: Test Example 3 IC50
measurement-name: IC50 (nM)

> print(dat)
                                   molecule  result.number
1  C=CC(=O)N1CC2(CC2)N(c2onc(-c3c(Cl)cccc3Cl)c2C(=O)n2ccc3c(/C=C/C(=O)O)cccc32)C[C@H]1CC             45
2  CNC(C)(C)c1onc(-c2c(Cl)cc(Cl)cc2Cl)c1C(=O)n1cc2c3c(cccc31)/C(=C/C(=O)O)CC2              9
3  Cc1cn(C(=O)c2c(-c3c(F)cccc3Cl)noc2C(C)(C)F)c2cccc(/C=C/C(=O)O)c12            263

1: COC(C)(C)c1onc(-c2c(Cl)cc(Cl)cc2Cl)c1C(=O)n1ccc2c(/C=C/C(=O)O)cccc21
2: O=C(O)/C=C/c1cccc2c1ccn2C(=O)c1c(-c2c(Cl)cc(Cl)cc2Cl)noc1C1(F)COC1
3: C=CC(=O)N1CCC(c2onc(-c3c(Cl)cc(Cl)cc3Cl)c2C(=O)n2cc3c4c(cccc42)C(CC(=O)O)CC3)CC1 (stereo not shown)
4: C=CC(=O)N1CCN(c2onc(-c3c(F)cccc3Cl)c2C(=O)n2ccc3c(/C=C/C(=O)O)cccc32)C(C)(C)C1
Ascending sort, IC50. Order the labels as requested and give them as your answer.
1, 3, 4, 2
